# method.summary: NFAT Signaling Pathway (AID 444);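 also: carbachol stimulus at about its EC50 of 1 µM final; % is scaled to controls: 0 for no effect and ±100 for the full control effect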
# measurement.setup: Jurkat NFAT-bla M1, carbachol, beta-lactamase ratio, 5 h; at 7.69 µM (top of the series) unless noted
Results filed as inconclusive are left out. Calls of active or inactive are those of the source. Calls follow the shape of the dose curve; as a rule, active = well fitted curve in either direction with a large enough effect (not every such curve was filed as active); inconclusive = small, poorly fitted or top-dose-only effect, or another doubt; inactive = flat fitted curve, though single readings scatter.
Outcome codes: active, inactive

molecule=Cn1cc(-c2nc3cnc(N4CCNCC4)nc3n(C3CC3)c2=O)c2ccccc21 classification=inactive
molecule=COc1cccc(-c2nc(NCc3cccnc3)c3ccccc3n2)c1 classification=inactive
molecule=O=c1cc(O)cc(/C=C\c2ccc(O)c(O)c2)o1 classification=inactive
molecule=COc1ccccc1-c1ccc2ncnc(N3CCOCC3)c2c1 classification=inactive
molecule="CC(C)OC(=O)C(C#N)c1nc2ccccc2nc1N1CCCC1 (stereo not drawn)" classification=inactive
molecule=COCCn1c(=O)c(-c2cccc(C#N)c2)nc2cnc(Oc3cccc(Cl)c3)nc21 classification=inactive
molecule=COc1cccc(Nc2ncc3ncc(=O)n(Cc4ccc(F)cc4)c3n2)c1 classification=inactive
molecule=CN(C)C(=O)c1ccc(-c2cc(NCc3ccccc3)ncn2)cc1 classification=inactive
molecule=N#CCCn1c(=O)c(-c2ccc(Cl)cc2)nc2cnc(N3CCOCC3)nc21 classification=inactive
molecule=CCNc1ncc2nc(-c3cccs3)c(=O)n(CCC#N)c2n1 classification=inactive
molecule=CN(Cc1ccco1)c1cc(-c2ccc3c(c2)OCO3)ncn1 classification=inactive
molecule=CCNc1ncc2ncc(=O)n(Cc3ccc(F)cc3)c2n1 classification=inactive
molecule=COc1cccc(Nc2ncc3ncc(=O)n(CCC#N)c3n2)c1 classification=inactive
molecule=O=c1c(-c2cccc(F)c2)nc2cncnc2n1Cc1ccc(F)cc1 classification=inactive
molecule=c1cn(-c2ncnc3ccc(-c4ccoc4)cc23)cn1 classification=inactive
molecule=O=c1c(CCc2ccccc2)nc2cnc(N3CCNCC3)nc2n1Cc1cccs1 classification=inactive
molecule=c1ccc(Nc2nc(-c3ccoc3)nc3ccccc23)cc1 classification=inactive
molecule=COc1ccccc1CNc1nc(-c2cccc(NS(C)(=O)=O)c2)nc2ccccc12 classification=inactive
molecule=COc1ccccc1CNc1ncnc2ccc(-c3ccc(C(=O)N(C)C)cc3)cc12 classification=inactive
molecule=CN1CCN(c2ncc3nc(-c4cn(C)c5ccccc45)c(=O)n(CCC#N)c3n2)CC1 classification=inactive
molecule=c1ccc2c(NCCN3CCOCC3)nc(-c3ccc4c(c3)OCO4)nc2c1 classification=inactive
molecule=COCCn1c(=O)c(-c2ccc(F)cc2)nc2cnc(Nc3cccc(OC)c3)nc21 classification=inactive
molecule=Cn1cc(-c2nc3cnc(N4CCNCC4)nc3n(CCc3ccccc3)c2=O)c2ccccc21 classification=active

---

# experimental.system: Rap guanine nucleotide exchange factor 3 (Homo sapiens) (UniProt O95398)
# Sequence (O95398 whole entry, looked up): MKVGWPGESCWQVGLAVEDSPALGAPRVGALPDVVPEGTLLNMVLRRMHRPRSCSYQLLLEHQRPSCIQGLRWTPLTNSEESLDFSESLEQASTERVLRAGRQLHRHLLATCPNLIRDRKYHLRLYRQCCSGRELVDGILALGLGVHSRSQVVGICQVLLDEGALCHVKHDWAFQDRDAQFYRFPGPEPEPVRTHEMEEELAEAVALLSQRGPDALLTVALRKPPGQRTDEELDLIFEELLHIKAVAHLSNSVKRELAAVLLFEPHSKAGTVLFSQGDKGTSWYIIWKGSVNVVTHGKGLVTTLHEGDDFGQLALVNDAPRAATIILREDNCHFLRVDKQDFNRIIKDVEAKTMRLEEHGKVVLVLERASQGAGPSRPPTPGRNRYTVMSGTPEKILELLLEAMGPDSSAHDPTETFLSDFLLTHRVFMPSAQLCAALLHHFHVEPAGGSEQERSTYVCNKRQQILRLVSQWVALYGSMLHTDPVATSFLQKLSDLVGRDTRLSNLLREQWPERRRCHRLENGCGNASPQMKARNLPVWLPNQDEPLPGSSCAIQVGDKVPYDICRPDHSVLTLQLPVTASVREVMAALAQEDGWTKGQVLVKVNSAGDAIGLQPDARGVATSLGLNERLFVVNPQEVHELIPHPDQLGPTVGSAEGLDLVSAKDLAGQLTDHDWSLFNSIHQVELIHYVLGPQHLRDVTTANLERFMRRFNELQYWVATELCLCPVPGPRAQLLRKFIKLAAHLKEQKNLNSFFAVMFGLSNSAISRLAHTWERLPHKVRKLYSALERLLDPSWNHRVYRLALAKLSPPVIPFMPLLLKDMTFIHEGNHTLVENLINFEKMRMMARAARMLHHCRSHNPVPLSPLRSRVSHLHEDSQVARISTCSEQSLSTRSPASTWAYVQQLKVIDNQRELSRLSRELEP
# method.summary: Counterscreen qHTS for antagonist of cAMP-regulated guanine nucleotide exchange factor 3 (EPAC1) (AID 1645888);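 also: fluorescence loss as bound BODIPY-GDP is released from Rap1B; % of control where 0% means no effect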
# measurement.setup: Rap1B-BODIPY-GDP nucleotide exchange, fluorescence; series mostly up to 154 µM
Results filed as inconclusive are left out. Calls of active or inactive are those of the source. The call rests on the fitted dose curve; in most records, active means well fitted inhibition curve with a large enough effect; inconclusive means small, poorly fitted or top-dose-only effect; inactive means no such curve, though single readings can be large or run the other way.
readout.type: activity change, negative = inhibition

compound=COc1ccc(/C=C2\C(=O)NC(=S)N2C(=O)c2ccc(F)cc2)cc1 result=inactive
compound=Cc1nnc2ccc(-c3ccc(NC(=O)Cc4cccs4)cc3)nn12 result="-8.86% [at 30.8 µM] (inactive)"
compound=COc1ccccc1Oc1ncnc2c1oc1ccccc12 result="7.03% [at 30.8 µM] (inactive)"
compound=CC(C)(C)CNC(=O)c1cccc2c1C(=O)c1ccc(-c3cc4ccccc4o3)cc1S2(=O)=O result=inactive
compound=CCc1cc(=O)oc2cc(C)cc(OCC(=O)N[C@@H](CSCc3ccccc3)C(=O)O)c12 result=inactive
compound=O=C1C=C(Nc2cccc3cccnc23)c2ccccc2C1=O result=inactive
compound="Cn1c(C(O)c2ccc(Br)cc2)nc(Cl)c1Cl (stereo not drawn)" result="-0.272% [at 30.8 µM] (inactive)"
compound=CCCn1cc(SCC(=O)NCc2ccc3c(c2)OCO3)c2ccccc21 result="-3.41% [at 30.8 µM] (inactive)"
compound=CC(NC(=O)Nc1ccc(O)cc1)(C(F)(F)F)C(F)(F)F result="-9.73% [at 30.8 µM] (inactive)"
compound=O=C(CN1CCCCCC1)Nc1ccccc1Oc1ccccc1 result=inactive
compound="CCCCCNC(=O)C(C#N)c1nc2ccccc2nc1N1CCCC1 (stereo not drawn)" result="-27.7% [at 30.8 µM] (inactive)"
compound=Cc1nc(N(C)C)c2sc(=S)n(Cc3ccccc3)c2n1 result="-16.2% [at 30.8 µM] (inactive)"
compound=COc1ccc(C(=O)Nc2ccc(NC(=O)c3cccs3)cc2)cc1OC result=inactive
compound=COC(=O)c1ccccc1C(=O)c1c(C)cc(C)cc1C result="4.03% [at 30.8 µM] (inactive)"
compound=Cc1ccc(S(=O)(=O)Nc2ccc3cc([N+](=O)[O-])ccc3c2[N+](=O)[O-])cc1 result=inactive
compound="CCCCN1CC(c2nc3ccccc3n2CCCCOc2cc(C)cc(C)c2)CC1=O (stereo not drawn)" result=inactive
compound="CC1=C(C(=O)OCc2ccccc2)C(c2ccc(Cl)cc2Cl)NC(=O)N1CCCCCC(=O)O (stereo not drawn)" result=inactive
compound=O=c1[nH]nc(CNc2ccc(O)cc2)c2ccccc12 result=inactive
compound=COC(=O)NCc1c(C)nn(-c2ccccc2)c1-n1cccc1 result=inactive
compound="COC(=O)c1sc(S(=O)(=O)N2CCCCC2C)c(C(=O)OC)c1C (stereo not drawn)" result=inactive
compound=COC(=O)c1c(SC)nc2ccccc2c1OCc1ccc(C)cc1C result=inactive
compound=CCN(c1ccccc1)S(=O)(=O)c1ccc(C(=O)Nc2ccncc2)cc1 result="-7.46% [at 30.8 µM] (inactive)"
compound="CC1(C)c2ccccc2N(CC(N)=O)C12C=Cc1ccccc1O2 (stereo not drawn)" result="6.74% [at 30.8 µM] (inactive)"
